The values you see were collected from ChEMBL document CHEMBL1201862.

- Test system: Malme-3M
- PROTOCOL DESCRIPTION: NCI tumour cell line growth inhibition, 48 h
The source made the active and inactive calls. Cut-off read from the data, not from the text of the source: active = GI50 up to about 1.1 µM and inactive = higher.
MEASUREMENT LABEL: GI50

Task item: Form field: GI50 recorded for CCOC(C)O[C@H]1C(=O)OCC1(C)C (stereo partly drawn) with Malme-3M (enter value)
Reply: > 100 µM (inactive)

Task item: Form field: GI50 recorded for O=C1c2ccccc2C(=O)c2c(NCC(O)CO)ccc(NCC(O)CO)c21 (stereo not drawn) with Malme-3M (enter value)
Reply: 91.2 µM (inactive)

Task item: Form field: GI50 recorded for CC1OC(OC2C(CO)OC(O[C@H]3CC[C@@]4(C)C(=CC[C@H]5[C@@H]6C[C@@H]7O[C@](O)(CC[C@@H](C)COC8OC(CO)C(O)C(O)C8O)[C@@H](C)[C@@H]7[C@@]6(C)CC[C@@H]54)C3)C(OC3OC(C)C(O)C(O)C3O)C2O)C(O)C(O)C1O (stereo partly drawn) with Malme-3M (enter value)
Reply: 1.89 µM (inactive)

Task item: Form field: GI50 recorded for Cc1cc(C)c2c(n1)S(=O)(=O)N(CCCN1CCN(c3cccc(C(F)(F)F)c3)CC1)c1c-2nn(C)c1C with Malme-3M (enter value)
Reply: > 100 µM (inactive)

Task item: Form field: GI50 recorded for CCCCCCCCCC[C@@H](O)[C@@H]1CC[C@@H]([C@@H]2CC[C@@H]([C@@H](O)CCCCCCCCCCC(O)CC3=CC(C)OC3=O)O2)O1 (stereo partly drawn) with Malme-3M (enter value)
Reply: 1.81 µM (inactive)

Task item: Form field: GI50 recorded for CN(C)/C=N/S(=O)(=O)c1nn2c(C=O)c(-c3cc4ccccc4oc3=O)nc2s1 with Malme-3M (enter value)
Reply: 1.95 µM (inactive)

Task item: Form field: GI50 recorded for CC(=O)OCC1OC(OC2CC3C(C)(C)C(OC(C)=O)CC[C@]3(C)C3CCC45CC4(CCC5[C@@H](C)C[C@H](O)C(O)C(C)(C)O)[C@]23C)C(O)C(O)C1O (stereo partly drawn) with Malme-3M (enter value)
Reply: > 10 µM (inactive)

Task item: Form field: GI50 recorded for COc1ccc(-c2onc(-c3c(C)cc(C)cc3C)c2C2=NCCN2)cc1 with Malme-3M (enter value)
Reply: 33.3 µM (inactive)

Task item: Form field: GI50 recorded for CCN(CC)c1ccc2c(c1)OC(=O)C(c1nnc(-c3ccc([N+](=O)[O-])cc3)o1)C2 (stereo not drawn) with Malme-3M (enter value)
Reply: > 100 µM (inactive)

Task item: Form field: GI50 recorded for Cc1nc2c(=O)[nH]c(=O)n(C)c2[nH]c1=O.c1ccncc1 with Malme-3M (enter value)
Reply: > 100 µM (inactive)

Task item: Form field: GI50 recorded for O=c1c2cccnc2ncn1CCCN1CCCCC1 with Malme-3M (enter value)
Reply: > 100 µM (inactive)

Task item: Form field: GI50 recorded for O=C1CSC2(CC(/C=C/c3ccccc3)=NN2c2cccc(S(=O)(=O)O)c2)N1c1nc2ccccc2s1 (stereo not drawn) with Malme-3M (enter value)
Reply: 69.7 µM (inactive)

Task item: Form field: GI50 recorded for O=[N+]([O-])c1cccc(Cl)c1Oc1ccc(S(=O)(=O)N/C(=N\O)Nc2ccc(Cl)cc2)cc1 with Malme-3M (enter value)
Reply: 13.1 µM (inactive)

Task item: Form field: GI50 recorded for O=C1Oc2ccccc2N/C1=C/C(=O)c1ccc(Cl)cc1 with Malme-3M (enter value)
Reply: > 100 µM (inactive)

Task item: Form field: GI50 recorded for CC(=O)NC1c2ccccc2C(C)(C)C12CCC1(CC2)OCCO1 (stereo not drawn) with Malme-3M (enter value)
Reply: 98.6 µM (inactive)

Task item: Form field: GI50 recorded for COc1cc(C(=O)O)ccc1OS(=O)(=O)O with Malme-3M (enter value)
Reply: > 100 µM (inactive)

Task item: Form field: GI50 recorded for Cc1nc(C)c(N2CCNCC2)c(O)n1 with Malme-3M (enter value)
Reply: > 100 µM (inactive)

Task item: Form field: GI50 recorded for NC1CC=C(COC(=O)C(O)(c2ccccc2)C2CC2)CC1 (stereo not drawn) with Malme-3M (enter value)
Reply: > 100 µM (inactive)
